Numbers sourced from paper PMC9959048.

Test system: S. epidermidis PCM2118
Type: cell-based, Staphylococcus epidermidis
stated-conditions: PCM2118, 24 h
Protocol: The evaluation of the antimicrobial activity of the synthesized lipopeptides was performed against the following reference bacterial and fungal strains: Staphylococcus aureus PCM 1650, Staphylococcus aureus PCM 2054, Staphylococcus epidermidis PCM 521, Staphylococcus epidermidis PCM 2118, Escherichia coli PCM 2057, Candida albicans PCM 2566, Candida glabrata CCM 8270, Candida krusei CCM 8271, Candida parapsilosis CCM 8260. […]
Residues, ends and D or L forms follow the SMILES beside them. *: point of attachment. Palmitoyl = CCCCCCCCCCCCCCCC(=O)*; Myristoyl = CCCCCCCCCCCCCC(=O)*; Decanoyl = CCCCCCCCCC(=O)*
Hi there, I'd appreciate the recorded MIC, S. epidermidis PCM2118 for every entry that follows.
Answers are plain numbers, in µg/mL.

- molecule: "CC[C@H](C)[C@H](N)C(=O)N[C@@H](CCCCN)C(=O)N[C@@H](CCCCN)C(=O)N[C@H](C(=O)N[C@@H](CC(C)C)C(=O)N[C@@H](CO)C(=O)N[C@@H](CCCCN)C(=O)N[C@H](C(=O)N[C@@H](CCCCN)C(=O)N[C@@H](CCCCN)C(=O)N[C@@H](CC(C)C)C(=O)N[C@@H](CC(C)C)C(=O)N[C@@H](CCCCN)C(N)=O)[C@@H](C)CC)[C@@H](C)CC [LK6, reference compound] (H-IKKILSKIKKLLK-NH2)"
  assayed-target: "S. epidermidis PCM2118"
  measurement-kind: "MIC, S. epidermidis PCM2118"
  val: 6.25
- molecule: "CCCCCCCCCCCCCC(=O)N[C@H](C(=O)N[C@@H](CCCCN)C(=O)N[C@@H](CCCCN)C(=O)N[C@H](C(=O)N[C@@H](CC(C)C)C(=O)N[C@@H](CO)C(=O)N[C@@H](CCCCN)C(=O)N[C@H](C(=O)N[C@@H](CCCCN)C(=O)N[C@@H](CCCCN)C(=O)N[C@@H](CC(C)C)C(=O)N[C@@H](CC(C)C)C(=O)N[C@@H](CCCCN)C(N)=O)[C@@H](C)CC)[C@@H](C)CC)[C@@H](C)CC [C14-LK6] (Myristoyl-IKKILSKIKKLLK-NH2)"
  assayed-target: "S. epidermidis PCM2118"
  measurement-kind: "MIC, S. epidermidis PCM2118"
  val: 25

Quick request: MIC, S. epidermidis PCM2118 for each listed item, please.
1. CCCCCCCCCCCCCCCC(=O)N[C@H](C(=O)N[C@@H](CCCCN)C(=O)N[C@@H](CCCCN)C(=O)N[C@H](C(=O)N[C@@H](CC(C)C)C(=O)N[C@@H](CO)C(=O)N[C@@H](CCCCN)C(=O)N[C@H](C(=O)N[C@@H](CCCCN)C(=O)N[C@@H](CCCCN)C(=O)N[C@@H](CC(C)C)C(=O)N[C@@H](CC(C)C)C(=O)N[C@@H](CCCCN)C(N)=O)[C@@H](C)CC)[C@@H](C)CC)[C@@H](C)CC [C16-LK6] (Palmitoyl-IKKILSKIKKLLK-NH2)
2. CCCCCCCCCC(=O)N[C@H](C(=O)N[C@@H](CCCCN)C(=O)N[C@@H](CCCCN)C(=O)N[C@H](C(=O)N[C@@H](CC(C)C)C(=O)N[C@@H](CO)C(=O)N[C@@H](CCCCN)C(=O)N[C@H](C(=O)N[C@@H](CCCCN)C(=O)N[C@@H](CCCCN)C(=O)N[C@@H](CC(C)C)C(=O)N[C@@H](CC(C)C)C(=O)N[C@@H](CCCCN)C(N)=O)[C@@H](C)CC)[C@@H](C)CC)[C@@H](C)CC [C10-LK6] (Decanoyl-IKKILSKIKKLLK-NH2)

50
6.25
